Give measured CLint scaled for each item. Keep answers brief.
# METHOD: Intrinsic clearance in rat microsomes
# Format: ADME, Microsome
One number for each entry, in mL/min/kg.

Examples with their reported CLint scaled follow.
COC(=O)N[C@H](C(=O)N1CCC[C@H]1c1nc2ccc([C@H]3CC[C@H](c4ccc5nc([C@@H]6CCCN6C(=O)[C@@H](NC(=O)OC)C(C)C)[nH]c5c4)N3c3cc(Cl)c(N4CCCCC4)c(Cl)c3)cc2[nH]1)C(C)C :: 50
COC(=O)N[C@H](C(=O)N1CCC[C@H]1c1nc2cc([C@H]3CC[C@H](c4ccc5[nH]c([C@@H]6CCCN6C(=O)[C@@H](NC(=O)OC)C(C)C)nc5c4)N3c3cc(F)c(N4CCC(c5ccc(F)cc5)CC4)c(F)c3)ccc2[nH]1)C(C)C :: 53.3
COC(=O)N[C@H](C(=O)N1CCC[C@H]1c1nc2cc([C@H]3CC[C@H](c4ccc5[nH]c([C@@H]6CCCN6C(=O)[C@@H](NC(=O)OC)C(C)C)nc5c4)N3c3cc(F)c(N4CCCCC4)c(F)c3)ccc2[nH]1)C(C)C :: 187

Now let's try a different one.
Entry COC(=O)N[C@H](C(=O)N1CCC[C@H]1c1nc2ccc([C@H]3CC[C@H](c4ccc5nc([C@@H]6CCCN6C(=O)[C@@H](NC(=O)OC)C(C)C)[nH]c5c4)N3c3ccc(N4CCOCC4)cc3)cc2[nH]1)C(C)C : reported CLint scaled = ?
108

###

# METHOD: Half life in rat at 3 mg/kg, po by LC-MS method
# Type: ADME, organism-based
# EXPERIMENTAL_SETUP: in vivo
OUTCOME_MEASURE: half-life (h)
Give bare numbers, in h.

Fill blank: measured half-life of the compound COC(=O)N[C@H](C(=O)N1CCC[C@H]1c1nc2cc([C@H]3CC[C@H](c4cc5nc([C@@H]6CCCN6C(=O)[C@@H](NC(=O)OC)[C@@H](C)OC)[nH]c5cc4F)N3c3cc(F)c(N4CCC(c5ccc(F)cc5)CC4)c(F)c3)c(F)cc2[nH]1)[C@@H](C)OC is ____.
7

###

# MEASUREMENT_TARGET: Nonstructural protein 5A (Hepatitis C virus) (UniProt Q5L478)
# Sequence (Q5L478 as listed by the source): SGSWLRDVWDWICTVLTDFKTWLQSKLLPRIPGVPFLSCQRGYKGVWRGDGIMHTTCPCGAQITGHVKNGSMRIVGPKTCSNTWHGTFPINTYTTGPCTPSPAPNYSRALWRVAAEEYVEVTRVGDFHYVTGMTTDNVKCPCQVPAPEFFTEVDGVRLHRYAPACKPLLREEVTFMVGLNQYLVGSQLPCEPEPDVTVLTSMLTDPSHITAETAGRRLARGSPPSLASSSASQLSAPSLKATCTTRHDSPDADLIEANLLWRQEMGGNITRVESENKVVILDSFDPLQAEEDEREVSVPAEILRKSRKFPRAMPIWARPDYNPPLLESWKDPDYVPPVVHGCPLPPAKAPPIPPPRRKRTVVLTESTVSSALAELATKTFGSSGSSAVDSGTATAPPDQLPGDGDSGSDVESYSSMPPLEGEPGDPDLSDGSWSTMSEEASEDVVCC
# METHOD: Inhibition of NS5A Q30E mutant in HuH7 cell infected HCV genotype 1a H77 assessed as decrease in viral replication after 4 days by luciferase reporter gene assay relative to wild type protein
# EXPERIMENTAL_SETUP: Hepatitis C virus (isolate H77)
OUTCOME_MEASURE: fold change (FC)
Numbers only.

Reference set (3 entries):
COC(=O)N[C@H](C(=O)N1CCC[C@H]1c1nc2ccc([C@H]3CC[C@H](c4ccc5nc([C@@H]6CCCN6C(=O)[C@@H](NC(=O)OC)C(C)C)[nH]c5c4)N3c3cc(F)c(N4CCC(c5ccc(F)cc5)CC4)c(F)c3)cc2[nH]1)C(C)C :: 20
COC(=O)N[C@H](C(=O)N1CCC[C@H]1c1nc2ccc([C@H]3CC[C@H](c4ccc5nc([C@@H]6CCCN6C(=O)[C@@H](NC(=O)OC)C(C)C)[nH]c5c4)N3c3ccc(-c4ccccc4)cc3)cc2[nH]1)C(C)C :: 47
COC(=O)N[C@H](C(=O)N1CCC[C@H]1c1nc2cc([C@H]3CC[C@H](c4ccc5[nH]c([C@@H]6CCCN6C(=O)[C@@H](NC(=O)OC)C(C)C)nc5c4)N3c3cc(F)c(N4CCCCC4)c(F)c3)ccc2[nH]1)C(C)C :: 134

Then this compound:
Give the measured fold change (FC) of COC(=O)N[C@H](C(=O)N1CCC[C@H]1c1nc2cc(F)c([C@H]3CC[C@H](c4cc5[nH]c([C@@H]6CCCN6C(=O)[C@@H](NC(=O)OC)C6CCOCC6)nc5cc4F)N3c3cc(F)c(N4CCC(c5ccccc5)CC4)c(F)c3)cc2[nH]1)C1CCOCC1 .
1

Data provenance is ChEMBL document CHEMBL4177761.
